experiment-notes: Acute toxicity (LD50) in mice
experimental-conditions: mouse, in vivo, ip, intraperitoneally, read-out: LD50, intraperitoneal
measure-name: LD50

Look at this compound and give its reported LD50. `O=c1[nH]c(=O)n([C@@H]2O[C@H](COP(=O)(O)O)[C@@H](O)[C@@H]2O)cc1/C=C/Br`
1730 mg/kg

---

Tested on: HSV-2-MS
experiment-notes: Antiviral activity in human embryonic lung fibroblasts (method of Sidwell et al), HSV-2-MS
Format: cell-based, herpes simplex virus type 2 strain MS
Method: According to the method of Sidwell et al (Applied Microbiology, 22, (5), 797 (1971)), with the use of human embryonic lung fibroblasts, the antiviral activities of BVAUP and CVAUP were tested, with BVAU, CVAU and 5-iodo-2'-deoxyuridine (IDU) as controls. effects were depressed more than 50%; ^2 HSV2-MS: herpes simplex virus type 2 strain MS
For each record, write down the corresponding VR: virus rating.
// print number alone

Look at this molecule and give its reported VR: virus rating. O=c1[nH]c(=O)n([C@H]2C[C@H](O)[C@@H](CO)O2)cc1I [IDU, 5-iodo-2'-deoxyuridine]
2.2

O=c1[nH]c(=O)n([C@@H]2O[C@H](CO)[C@@H](O)[C@@H]2O)cc1/C=C/Br [BVAU, reference compound] , same question.
1.1

O=c1[nH]c(=O)n([C@@H]2O[C@H](COP(=O)(O)O)[C@@H](O)[C@@H]2O)cc1/C=C/Br [BVAUP] , same question.
1.1

O=c1[nH]c(=O)n([C@@H]2O[C@H](COP(=O)(O)O)[C@@H](O)[C@@H]2O)cc1/C=C/Cl [CVAUP] , same question.
0.5

O=c1[nH]c(=O)n([C@@H]2O[C@H](CO)[C@@H](O)[C@@H]2O)cc1/C=C/Cl [CVAU] , same question.
0.7

---

experiment-notes: Acute toxicity (LD50) in mice
experimental-conditions: mouse, in vivo, iv, intravenously, read-out: LD50, intravenous
measure-name: LD50 (mg/kg)
The response must be a number in mg/kg with no trailing unit.

Look at this compound and give its reported LD50. O=c1[nH]c(=O)n([C@@H]2O[C@H](COP(=O)(O)O)[C@@H](O)[C@@H]2O)cc1/C=C/Br [BVAUP]
1610

---

experiment-notes: Solubility in water
Assay type: physicochemical
measure-name: solubility

Look at this compound and give its reported solubility. `O=c1[nH]c(=O)n([C@@H]2O[C@H](COP(=O)(O)O)[C@@H](O)[C@@H]2O)cc1/C=C/Br`
~500 mg/mL

O=c1[nH]c(=O)n([C@@H]2O[C@H](CO)[C@@H](O)[C@@H]2O)cc1/C=C/Br [BVAU, reference compound] , same question.
4 mg/mL

All figures here come from patent US4542210A.
